# Tested on: Mexican Bean Beetle
# Assay Explanation: Biological Method D: Foliar Insecticidal Activity Test, Mexican Bean Beetle test
# Type: in vivo, Epilachna varivestis
# Stated Conditions: Epilachna varivestis, foliar; Mexican Bean Beetle; 48 hrs; compounds a-r; read-out: LC 50 BB 48 hrs.
Measured LC50 values are reported for all entries that follow.
Readout Name: LC50 (µg/mL)

1. CCOP(=S)(NN(C)P(=S)(OCC)OC(C)C)OCC (stereo not drawn) [q]
300
2. CCOP(=S)(OCC)N(C)N(C)P(=S)(OCC)OC(C)C (stereo not drawn) [b]
150
3. CCCOP(=S)(NN(C)P(=S)(OCC)OCC)OCC (stereo not drawn) [c]
150
4. CCOP(=S)(NN(C)P(=S)(OCC)OCC)OC(C)C (stereo not drawn) [p]
270
5. CCOP(=S)(NN(C(=O)OC)P(=S)(OCC)OCC)OCC [o]
52
6. CCOP(=S)(OCC)N(C)NP1(=S)OCC(C)(C)CO1 [n]
150
7. CCOP(=O)(SC(C)CC)N(C)N(C)P(=S)(OC)OC (stereo not drawn) [m]
600
8. CCCOP(=S)(NN(C)P(=S)(OCC)OCC)OCCC [d]
150
9. CCOP(=S)(NN(C)P(=S)(OCC)OCC)OCC [a]
500

* * *

# Tested on: Southern Armyworm
# Assay Explanation: Biological Method D: Foliar Insecticidal Activity Test, Southern Armyworm test; on AW 96 hrs LC50: key: I = Inactive at Rate Tested
# Type: in vivo, Spodoptera eridania
# Stated Conditions: foliar spray; 96 hours after treatment
Readout Name: AW 96 hrs LC50

1. CCOP(=S)(NNP(=S)(OCC)OC(C)C)OC(C)C (stereo not drawn) [Compound 67, reference compound]
I
2. CCCOP(=S)(NNP(=S)(NCC(C)C)OCC)OCCC (stereo not drawn)
I
3. CCOP(=S)(NNP(=S)(OCC)N(C)CC)OCC (stereo not drawn)
I
4. CCCCCOP(=S)(NNP(=S)(OCCC)OCCC)OCC (stereo not drawn)
I
5. CCOP(=S)(NNP(=S)(OCC(C)(C)C)OC(C)C)OCC (stereo not drawn)
I
6. CCOP(=S)(NNP(=S)(OCC)OC(C)CC)OC(C)CC (stereo not drawn) [Compound 65, reference compound]
I
7. CCOP(=S)(NNP(=S)(OCC)OCC(C)C)OCC(C)C (stereo not drawn) [Compound 66, reference compound]
I
8. CCOP(=S)(NNP(=S)(OCC)OCC(F)(F)C(F)(F)F)OCC (stereo not drawn)
I
9. CCCOP(=S)(NNP(=S)(OCC)N1CCCCC1)OCCC (stereo not drawn)
I

* * *

# System: Boll Weevil
# Assay Explanation: Biological Method D: Foliar Insecticidal Activity Test, boll weevil test
# Assay type: in vivo, Anthonomous grandis
# Stated Conditions: Method D foliar test; Boll Weevil; 96 hrs
Readout Name: LC50 BW 96 hrs (ppm)

1. CCOP(=S)(NNP1(=S)OCC(C)(C)CO1)OCC [Compound 61]
740
2. CCOP(=S)(NNP(=S)(OCC(C)(C)C)OCC(C)(C)C)OCC [Compound 59, reference compound]
740
3. CCOP(=S)(NNP(=S)(OCC)OCC(C)(C)C)OCC (centres unmarked) [Compound 38]
740
4. CCOP(=O)(NNP(=S)(OCC)OCC)SC(C)CC (centres unmarked) [Compound 53]
740
5. CCCOP(=S)(NNP(=S)(OCC)SCC)OCCC (centres unmarked) [Compound 27]
740
6. CCCNP(=S)(NNP(=S)(OCC)OCC)OCC (centres unmarked) [Compound 24]
380
7. CCOP(=S)(NNP(=S)(OCC)OCC(C)C)OCC (centres unmarked) [Compound 11]
740
8. CCOP(=S)(NNP(=S)(OC)OC)OCC(C)(C)C (centres unmarked) [Compound 44]
380
9. CCOP(=S)(NNP(=S)(OCC)OC(C)CC)OCC (centres unmarked) [Compound 8]
740
10. CCOP(=O)(NNP(=S)(OCC)OC(C)C)SC(C)CC (centres unmarked) [Compound 55]
70
11. CCCOP(=S)(NNP(=S)(OCC)OCC(C)(C)C)OCC (centres unmarked) [Compound 45]
150

* * *

# Test system: southern corn rootworm, Diabrotica undecimpunctata howardi
# Stated Conditions: at-planting soil application, value in brackets
Measured secondary aggressive Method C crw LC50 values are reported for all entries that follow.
Readout Name: secondary aggressive Method C crw LC50 (lb/acre)

1. CCOP(=S)(NNP(=S)(OCC)OCC(C)(C)C)OCC (stereo not drawn) [Compound 38]
0.45
2. CCOP(=S)(NNP(=S)(OCC)OC(C)(C(F)(F)F)C(F)(F)F)OCC(C)(C)C (stereo not drawn) [Compound 48]
0.56
3. CCOP(=O)(NNP(=S)(OCC)OCC(C)(C)C)SC(C)CC (stereo not drawn) [Compound 52]
0.70
4. CCCOP(=S)(NNP(=S)(OCC)OCC(C)(C)C)OCC (stereo not drawn) [Compound 45]
0.33
5. CCCCNP(=S)(NNP(=S)(OCC)OCC)OCC (stereo not drawn) [Compound 74]
0.92
6. CCOP(=S)(NNP(=S)(OCC)OC(C)CC)OCC (stereo not drawn) [Compound 8]
0.72
7. CCOP(=S)(NNP(=S)(OCC)OCC(C)C)OCC (stereo not drawn) [Compound 11]
0.32
8. CCCOP(=S)(NNP(=S)(OCCC)OCCC)OCCC [Compound 14, reference compound]
1.0

* * *

# Test system: Southern Armyworm
# Assay Explanation: Biological Method D: Foliar Insecticidal Activity Test, Southern Armyworm test
# Assay type: in vivo, Spodoptera eridania
# Stated Conditions: Spodoptera eridania; Method D foliar test; Southern Armyworm; 96 hrs; read-out: LC50 AW 96 hrs
Measured LC50 values are reported for all entries that follow.
Readout Name: LC50 (mg/L)

1. CCCOP(=S)(NNP(=S)(OCC)OCC(C)(C)C)OCC (centres unmarked)
150
2. CCOP(=S)(NNP(=S)(OC)OC)OCC(C)(C)C (centres unmarked)
500
3. CCCOP(=S)(NNP(=S)(OCC)OCCC)OCC (centres unmarked) [Compound 29, reference compound]
180
4. CCOP(=S)(NNP(=S)(OCC)OCC)OCC [Compound 1, reference compound]
500
5. CCOP(=S)(NNP(=S)(OCC)OC(C)(C(F)(F)F)C(F)(F)F)OCC(C)(C)C (centres unmarked)
150

* * *

# System: Boll Weevil
# Assay Explanation: Biological Method D: Foliar Insecticidal Activity Test, boll weevil test
# Assay type: in vivo, Anthonomous grandis
# Stated Conditions: Method D foliar test; Boll Weevil; 48 hrs
Measured LC50 BW 48 hrs values are reported for all entries that follow.
Readout Name: LC50 BW 48 hrs (ppm)

1) CCOP(=O)(NNP(=S)(OCC)OC(C)C)SC(C)CC (stereo not drawn)
740
2) CCOP(=S)(NNP(=S)(OC)OC)OCC(C)(C)C (stereo not drawn)
380
3) CCOP(=S)(NNP(=S)(OCC)OCC(C)(C)C)OCC (stereo not drawn)
740
4) CCOP(=S)(NNP1(=S)OCC(C)(C)CO1)OCC
740
5) CCOP(=O)(NNP(=S)(OCC)OCC)SC(C)CC (stereo not drawn)
740
6) CCOP(=S)(NNP(=S)(OCC(C)(C)C)OCC(C)(C)C)OCC [Compound 59, reference compound]
740

* * *

# System: southern corn rootworm, Diabrotica undecimpunctata howardi
# Stated Conditions: at-planting soil application, rated 17 days post-infestation
Readout Name: secondary aggressive Method C crw LC50 (kg/ha)

1. CCOP(=O)(NNP(=S)(OCC)OCC(C)(C)C)SC(C)CC (centres unmarked)
0.78
2. CCOP(=S)(NNP(=S)(OCC(C)(C)C)OCC(C)(C)C)OCC(C)(C)C (centres unmarked)
0.5
3. CCOP(=S)(NNP(=S)(OCC)OCC(C)C)OCC (centres unmarked)
0.36
4. CCCOP(=S)(NNP(=S)(OCCC)OCCC)OCCC [Compound 14, reference compound]
1.12

* * *

# Test system: southern corn rootworm, Diabrotica undecimpunctata howardi
# Stated Conditions: at-planting soil application, rated 17 days post-infestation
Could you label it class 1 if measured secondary aggressive Method C crw LC50 is 0.6 kg/ha or higher, and class 0 otherwise?

1. CCCOP(=S)(NNP(=S)(OCC)OCC(C)(C)C)OCC (centres unmarked)
class 0
2. CCOP(=S)(NNP(=S)(OCC)OC(C)CC)OCC(C)(C)C (centres unmarked)
class 0
3. CCOP(=S)(NNP(=S)(OC(C)C)OC(C)C)OCC [Compound 9, reference compound]
class 1
4. CCOP(=S)(NNP(=S)(OC)OC)OCC(C)(C)C (centres unmarked)
class 0
5. CCCOP(=S)(NNP(=S)(OC(C)C)OC(C)C)OCCC [Compound 16, reference compound]
class 1

* * *

# System: southern corn rootworm, Diabrotica undecimpunctata howardi
# Stated Conditions: at-planting soil application, value in brackets
Could you label it Satisfied if measured secondary aggressive Method C crw LC50 is 0.8 lb/acre or higher, and Not satisfied otherwise?

1) CCCOP(=S)(NNP(=S)(OCC)OCC)OCC(C)(C)C (stereo not shown)
Not satisfied
2) CCCOP(=S)(NNP(=S)(OCC)OC(C)C)OCCC (stereo not shown)
Satisfied
3) CCCCOP(=S)(NNP(=S)(OCCC)OCCC)OCC (stereo not shown)
Satisfied
4) CCCOP(=S)(NNP(=S)(OCC)OC(C)CC)OCCC (stereo not shown)
Not satisfied
5) CCCOP(=S)(NNP(=S)(OC(C)C)OC(C)C)OCCC [Compound 16, reference compound]
Satisfied
6) CCOP(=S)(NNP(=S)(OCC(C)(C)C)OCC(C)(C)C)OCC(C)(C)C (stereo not shown)
Not satisfied
7) CCOP(=S)(NNP(=S)(OC)OC)OCC(C)(C)C (stereo not shown)
Not satisfied
